- tested_target: CYP3A4 (C64/C468 mutant) (Homo sapiens, UniProt P08684, form not given/S18F)
- Sequence (P08684 13-503 S18F, form open): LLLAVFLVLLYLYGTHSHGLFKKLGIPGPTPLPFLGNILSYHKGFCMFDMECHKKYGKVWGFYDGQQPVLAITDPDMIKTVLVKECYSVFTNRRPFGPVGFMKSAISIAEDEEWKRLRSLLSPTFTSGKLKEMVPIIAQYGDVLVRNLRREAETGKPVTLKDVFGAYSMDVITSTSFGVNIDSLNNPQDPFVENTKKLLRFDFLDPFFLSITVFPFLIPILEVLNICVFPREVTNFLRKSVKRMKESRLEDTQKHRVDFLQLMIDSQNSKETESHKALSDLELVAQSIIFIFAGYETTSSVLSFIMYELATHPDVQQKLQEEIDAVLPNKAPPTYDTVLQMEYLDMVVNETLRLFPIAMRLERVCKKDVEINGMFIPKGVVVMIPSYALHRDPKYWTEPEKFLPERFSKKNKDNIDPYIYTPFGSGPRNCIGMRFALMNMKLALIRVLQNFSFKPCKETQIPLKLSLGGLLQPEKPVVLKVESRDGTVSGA
- protocol_details: Ligand-induced spin shift, absorbance titration
- Type: binding
- assay_setup: human, purified CYP3A4(C64/C468) mutant protein, pH 7.4; read-out: K D or S 50
Structures can show the parent of a compound that is named as a salt.
The following compounds are listed with their measured Kd values.
Give the quantity in µM, number only.

>>> recorded_number("O=c1cc(-c2ccccc2)oc2c1ccc1ccccc12")
5.1

The measured Kd associated with OCCCCc1ccc2ccc3cccc4ccc1c2c34 reads 5.7

The measured Kd associated with CC(C)C[C@H]1C(=O)N2CCC[C@H]2[C@]2(O)O[C@](NC(=O)[C@@H]3C=C4c5cccc6[nH]c(Br)c(c56)C[C@H]4N(C)C3)(C(C)C)C(=O)N12 [Bromocriptine, Bromocriptine mesylate] reads 0.34

====

- tested_target: double-labeled CYP3A4 (C64/C468)-DY/ER (Homo sapiens, UniProt P08684, S18F, form not given)
- Sequence (P08684 13-503 S18F, form open): as the sequence (P08684 13-503 S18F, form open) above
- protocol_details: Time-resolved LRET (phosphorescence lifetime measurements); as to ΔR (change in interprobe distance), lifetime measurements: values in Å
- assay_setup: (C64/C468)-DY/ER; nearly-saturating ligand: ANF 100 µM, bromocriptine 2.5 µM, cholesterol 50 µM, testosterone 100 µM
Where a name gives a salt, the structure may show the parent alone.
The following compounds are listed with their measured ΔR (change in interprobe distance), lifetime measurements values.
Give the quantity in Å, number only.

The measured ΔR (change in interprobe distance), lifetime measurements associated with O=c1cc(-c2ccccc2)oc2c1ccc1ccccc12 reads 1.8

The measured ΔR (change in interprobe distance), lifetime measurements associated with OCCCCc1ccc2ccc3cccc4ccc1c2c34 reads −0.9

The measured ΔR (change in interprobe distance), lifetime measurements associated with CC(C)CCC[C@@H](C)[C@H]1CC[C@H]2[C@@H]3CC=C4C[C@@H](O)CC[C@]4(C)[C@H]3CC[C@]12C reads 1.6

The measured ΔR (change in interprobe distance), lifetime measurements associated with CC(C)C[C@H]1C(=O)N2CCC[C@H]2[C@]2(O)O[C@](NC(=O)[C@@H]3C=C4c5cccc6[nH]c(Br)c(c56)C[C@H]4N(C)C3)(C(C)C)C(=O)N12 [Bromocriptine, Bromocriptine mesylate] reads 0.3

====

- tested_target: double-labeled CYP3A4 C64/C121-DY/ER (Homo sapiens, UniProt P08684, A121C/C239S/C377S/C468A/C98S/S18F)
- Sequence (P08684 with tags, fused parts or gaps S18F/C98S/A121C/C239S/C377S/C468A limits assumed): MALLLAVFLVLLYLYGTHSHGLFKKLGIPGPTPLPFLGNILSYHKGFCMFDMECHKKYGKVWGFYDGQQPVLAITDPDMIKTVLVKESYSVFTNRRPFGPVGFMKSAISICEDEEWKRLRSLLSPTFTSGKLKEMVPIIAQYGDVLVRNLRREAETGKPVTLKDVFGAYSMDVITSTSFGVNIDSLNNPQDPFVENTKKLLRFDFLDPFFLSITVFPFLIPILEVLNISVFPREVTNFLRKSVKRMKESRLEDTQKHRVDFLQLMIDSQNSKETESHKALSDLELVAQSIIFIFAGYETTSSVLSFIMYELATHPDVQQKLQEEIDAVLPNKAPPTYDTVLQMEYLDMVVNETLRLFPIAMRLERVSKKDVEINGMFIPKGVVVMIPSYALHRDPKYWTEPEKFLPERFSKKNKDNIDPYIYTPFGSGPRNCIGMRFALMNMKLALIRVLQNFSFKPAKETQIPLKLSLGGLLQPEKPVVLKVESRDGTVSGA
- protocol_details: Steady-state LRET titration (delayed emission)
- assay_setup: Table S2; protein C64/C121-ER/DY; same ligand concentrations
Structures can show the parent of a compound that is named as a salt.
measured_property: R (interprobe distance with ligand), steady-state measurements (Å)
Give the quantity in Å, number only.

>>> recorded_number("CC(C)CCC[C@@H](C)[C@H]1CC[C@H]2[C@@H]3CC=C4C[C@@H](O)CC[C@]4(C)[C@H]3CC[C@]12C")
43.6
>>> recorded_number("CC(C)C[C@H]1C(=O)N2CCC[C@H]2[C@]2(O)O[C@](NC(=O)[C@@H]3C=C4c5cccc6[nH]c(Br)c(c56)C[C@H]4N(C)C3)(C(C)C)C(=O)N12 [Bromocriptine, Bromocriptine mesylate]")
43.6
>>> recorded_number("O=c1cc(-c2ccccc2)oc2c1ccc1ccccc12")
43.4
>>> recorded_number("C[C@]12CC[C@H]3[C@@H](CCC4=CC(=O)CC[C@@]43C)[C@@H]1CC[C@@H]2O")
43.9

Now take the following compound into account.
The measured R (interprobe distance with ligand), steady-state measurements associated with OCCCCc1ccc2ccc3cccc4ccc1c2c34 reads 43.4

====

- tested_target: double-labeled CYP3A4 (C64/C468)-DY/ER (Homo sapiens, UniProt P08684, S18F, form not given)
- protocol_details: Time-resolved LRET (phosphorescence lifetime measurements)
- assay_setup: Table S1; (C64/C468)-DY/ER; 1-PB 40 µM, ANF 100 µM, BCT 2.5 µM, cholesterol 100 µM, testosterone 100 µM; bi-exponential fit
Where a name gives a salt, the structure may show the parent alone.
measured_property: τ1 (phosphorescence decay time with ligand)
Please state the number and follow it with the unit.

Example compounds with recorded τ1 (phosphorescence decay time with ligand):
>>> result("O=c1cc(-c2ccccc2)oc2c1ccc1ccccc12")
"54 ± 1 µs"
>>> result("OCCCCc1ccc2ccc3cccc4ccc1c2c34")
"53 ± 1 µs"
>>> result("CC(C)CCC[C@@H](C)[C@H]1CC[C@H]2[C@@H]3CC=C4C[C@@H](O)CC[C@]4(C)[C@H]3CC[C@]12C")
"59 ± 1 µs"
>>> result("C[C@]12CC[C@H]3[C@@H](CCC4=CC(=O)CC[C@@]43C)[C@@H]1CC[C@@H]2O")
"69 ± 1 µs"

Now take the following compound into account.
The measured τ1 (phosphorescence decay time with ligand) associated with CC(C)C[C@H]1C(=O)N2CCC[C@H]2[C@]2(O)O[C@](NC(=O)[C@@H]3C=C4c5cccc6[nH]c(Br)c(c56)C[C@H]4N(C)C3)(C(C)C)C(=O)N12 [Bromocriptine, Bromocriptine mesylate] reads 55 ± 9 µs

====

- tested_target: double-labeled CYP3A4 (C64/C468)-ER/DY (Homo sapiens, UniProt P08684, S18F, form not given)
- Sequence (P08684 13-503 S18F, form open): as the sequence (P08684 13-503 S18F, form open) above
- protocol_details: Steady-state LRET titration (delayed emission)
- Format: binding
- assay_setup: Table S2; C64/C468-ER/DY; same ligand concentrations
Counter-ions that a name gives are not always drawn.
measured_property: ΔR, steady-state measurements (Å)
Give the quantity in Å, number only.

Example compounds with recorded ΔR, steady-state measurements:
>>> recorded_number("CC(C)CCC[C@@H](C)[C@H]1CC[C@H]2[C@@H]3CC=C4C[C@@H](O)CC[C@]4(C)[C@H]3CC[C@]12C")
3.5
>>> recorded_number("CC(C)C[C@H]1C(=O)N2CCC[C@H]2[C@]2(O)O[C@](NC(=O)[C@@H]3C=C4c5cccc6[nH]c(Br)c(c56)C[C@H]4N(C)C3)(C(C)C)C(=O)N12 [Bromocriptine, Bromocriptine mesylate]")
0.5
>>> recorded_number("OCCCCc1ccc2ccc3cccc4ccc1c2c34")
"−0.3"

The measured ΔR, steady-state measurements associated with O=c1cc(-c2ccccc2)oc2c1ccc1ccccc12 reads 2.1

The measured ΔR, steady-state measurements associated with C[C@]12CC[C@H]3[C@@H](CCC4=CC(=O)CC[C@@]43C)[C@@H]1CC[C@@H]2O reads 3.1

====

- tested_target: double-labeled CYP3A4 (C64/C468)-DY/ER (Homo sapiens, UniProt P08684, S18F, form not given)
- protocol_details: Time-resolved LRET (phosphorescence lifetime measurements)
- assay_setup: Table S1; (C64/C468)-DY/ER; same ligand concentrations
Structures can show the parent of a compound that is named as a salt.
measured_property: τ2 (phosphorescence decay time with ligand) (µs)
Give the quantity in µs, number only.

Example molecules with recorded τ2 (phosphorescence decay time with ligand):
>>> recorded_number("C[C@]12CC[C@H]3[C@@H](CCC4=CC(=O)CC[C@@]43C)[C@@H]1CC[C@@H]2O")
247
>>> recorded_number("CC(C)CCC[C@@H](C)[C@H]1CC[C@H]2[C@@H]3CC=C4C[C@@H](O)CC[C@]4(C)[C@H]3CC[C@]12C")
221

The measured τ2 (phosphorescence decay time with ligand) associated with CC(C)C[C@H]1C(=O)N2CCC[C@H]2[C@]2(O)O[C@](NC(=O)[C@@H]3C=C4c5cccc6[nH]c(Br)c(c56)C[C@H]4N(C)C3)(C(C)C)C(=O)N12 [Bromocriptine, Bromocriptine mesylate] reads 209

The measured τ2 (phosphorescence decay time with ligand) associated with OCCCCc1ccc2ccc3cccc4ccc1c2c34 reads 195

====

- tested_target: double-labeled CYP3A4 (C64/C468)-DY/ER (Homo sapiens, UniProt P08684, S18F, form not given)
- protocol_details: Steady-state LRET titration (delayed emission)
- Assay type: binding
- assay_setup: Table S2; C64/C468-DY/ER; same ligand concentrations
Structures can show the parent of a compound that is named as a salt.
The following molecules are listed with their measured ΔR, steady-state measurements values.
Give the quantity in Å, number only.

Example molecules with recorded ΔR, steady-state measurements:
>>> recorded_number("O=c1cc(-c2ccccc2)oc2c1ccc1ccccc12 [ANF, α-naphthoflavone]")
3.9
>>> recorded_number("CC(C)CCC[C@@H](C)[C@H]1CC[C@H]2[C@@H]3CC=C4C[C@@H](O)CC[C@]4(C)[C@H]3CC[C@]12C [Cholesterol, cholesterol]")
5.9

Now take the following molecule into account.
The measured ΔR, steady-state measurements associated with CC(C)C[C@H]1C(=O)N2CCC[C@H]2[C@]2(O)O[C@](NC(=O)[C@@H]3C=C4c5cccc6[nH]c(Br)c(c56)C[C@H]4N(C)C3)(C(C)C)C(=O)N12 [Bromocriptine, Bromocriptine mesylate] reads 0.2

====

- tested_target: double-labeled CYP3A4 (C64/C468)-ER/DY (Homo sapiens, UniProt P08684, S18F, form not given)
- protocol_details: Time-resolved LRET (phosphorescence lifetime measurements)
- assay_setup: Table S2; C64/C468-ER/DY; same ligand concentrations
measured_property: ΔR, lifetime measurements (Å)
Give the quantity in Å, number only.

>>> recorded_number("O=c1cc(-c2ccccc2)oc2c1ccc1ccccc12 [ANF, α-naphthoflavone]")
4.1
>>> recorded_number("CC(C)CCC[C@@H](C)[C@H]1CC[C@H]2[C@@H]3CC=C4C[C@@H](O)CC[C@]4(C)[C@H]3CC[C@]12C [Cholesterol, cholesterol]")
4.8

The measured ΔR, lifetime measurements associated with C[C@]12CC[C@H]3[C@@H](CCC4=CC(=O)CC[C@@]43C)[C@@H]1CC[C@@H]2O [Testosterone, testosterone] reads 4.5

The measured ΔR, lifetime measurements associated with OCCCCc1ccc2ccc3cccc4ccc1c2c34 [1-PB, 1-pyrenebutanol] reads 0.4
